- TGT: T1, D1 domain of human IL-2Rγ extracellular domain expressed with a C-terminal myc-myc-hexahistidine tag (human)
- T1 construct: also called human IL2Rγ domain 1
- T1 chain: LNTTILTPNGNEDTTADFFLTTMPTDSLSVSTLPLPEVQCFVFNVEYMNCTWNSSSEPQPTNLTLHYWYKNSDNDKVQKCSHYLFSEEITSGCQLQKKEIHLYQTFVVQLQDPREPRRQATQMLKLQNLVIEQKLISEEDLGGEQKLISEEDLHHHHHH
- ASSAY_PROCEDURE: SPR, mAb captured on anti-hFc, 37 C
Provide the recorded kon for the entries that follow.
Numbers only, in M⁻¹ s⁻¹.

In the examples that follow, each entry is paired with its recorded kon.
[
  {
    "BINDER": "H4H12889P (antibody, human IgG4 S228P, kappa, V domains shown, human IgG4; also called REGN7257) VH: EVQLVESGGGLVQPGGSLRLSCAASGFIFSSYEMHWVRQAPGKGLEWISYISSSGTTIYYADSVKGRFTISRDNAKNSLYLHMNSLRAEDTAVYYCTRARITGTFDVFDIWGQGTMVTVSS VL: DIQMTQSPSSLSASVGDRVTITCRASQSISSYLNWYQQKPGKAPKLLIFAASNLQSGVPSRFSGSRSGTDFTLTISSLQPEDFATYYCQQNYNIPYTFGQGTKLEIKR",
    "RECORDED_METRIC": "kon",
    "READOUT_VALUE": 254000
  },
  {
    "BINDER": "H4H12863P (antibody, human IgG4 S228P, kappa, V domains shown, human IgG4) VH: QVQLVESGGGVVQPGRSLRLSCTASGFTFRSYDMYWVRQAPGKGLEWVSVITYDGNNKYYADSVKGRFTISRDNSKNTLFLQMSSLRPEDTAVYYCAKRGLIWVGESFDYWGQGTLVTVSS VL: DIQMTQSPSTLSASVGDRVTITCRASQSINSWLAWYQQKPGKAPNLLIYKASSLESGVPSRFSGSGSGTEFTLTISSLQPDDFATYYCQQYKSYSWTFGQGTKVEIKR",
    "RECORDED_METRIC": "kon",
    "READOUT_VALUE": 254000
  },
  {
    "BINDER": "H4H12871P (antibody, human IgG4 S228P, kappa, V domains shown, human IgG4; also called REGN9434) VH: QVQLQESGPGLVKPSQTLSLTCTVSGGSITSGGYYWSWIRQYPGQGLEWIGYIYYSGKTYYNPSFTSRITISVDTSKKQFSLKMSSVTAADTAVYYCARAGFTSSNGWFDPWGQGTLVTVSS VL: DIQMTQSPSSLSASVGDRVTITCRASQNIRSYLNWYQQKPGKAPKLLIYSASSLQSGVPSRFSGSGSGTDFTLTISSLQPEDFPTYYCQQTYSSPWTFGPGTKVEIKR",
    "RECORDED_METRIC": "kon",
    "READOUT_VALUE": 170000
  }
]

Could you now look at the following binder, please?
(Q) Look up kon: H4H12884P (antibody, human IgG4 S228P, kappa, V domains shown, human IgG4) VH: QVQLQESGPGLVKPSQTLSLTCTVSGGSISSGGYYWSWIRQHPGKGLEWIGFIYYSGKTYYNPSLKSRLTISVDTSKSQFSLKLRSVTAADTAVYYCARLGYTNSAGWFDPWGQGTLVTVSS VL: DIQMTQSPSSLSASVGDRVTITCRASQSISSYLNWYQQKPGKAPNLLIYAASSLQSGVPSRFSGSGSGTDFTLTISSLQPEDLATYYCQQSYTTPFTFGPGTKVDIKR
(A) 134000
